Target: T1, Recombinant mouse TSG-6 (R&D Biosystems, catalog #2326-TS) (mouse, UniProt O08859 18-275)
T1 construct: Bought protein, used KLH-coupled as the immunogen; also called mTSG-6
T1 sequence (O08859 18-275 limits assumed): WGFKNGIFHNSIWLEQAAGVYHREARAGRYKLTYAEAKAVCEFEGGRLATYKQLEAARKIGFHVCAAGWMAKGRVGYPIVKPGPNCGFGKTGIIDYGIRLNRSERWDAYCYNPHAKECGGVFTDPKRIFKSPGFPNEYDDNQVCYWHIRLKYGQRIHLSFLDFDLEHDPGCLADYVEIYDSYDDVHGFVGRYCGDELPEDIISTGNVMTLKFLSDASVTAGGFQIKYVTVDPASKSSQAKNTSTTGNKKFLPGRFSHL
Assay: hybridoma raised against mouse TSG-6; clone selection by ELISA

binder | binding result
5D9 (antibody, V domains shown, Entries as printed include a leader and part of the constant region) VH: QVQLQQSGAELARPGASVKLSCKASDDTFINYGINWVKQRTGQGLEWIGETFPSNGNTFYNEKFKGKATLTADRSSSTTYMELRSLTSEDAAVYFCARHSNLPYFDHWGQGSTLTVSS VL: DIVMTQSPSSLSVSAGEKVTMSCKSSQSLLNSGNQKNYLAWYQQKPGQPPKLLIYGASTRESGVPERFTGSGSGTDFTLTISSVQAEDLAVYYCQNDHSYPFTFGGGTNLEIKR | binds
3C6 (antibody, V domains shown, Entries as printed include a leader and part of the constant region; also called anti-TSG-6 antibody 3C6) VH: EVQLQQSGPELVKPGASVKIPCKASGYTFTDYNMDWVKQSHGESLEWIGDIYPNNGGTIYNQKFKDKATLTVDKSSSTAYMELRSLTSEDNAVYYCARKTGTGFDYWGQGTTLTVSS VL: QIVLSQSPAILSASPGEKVTMTCRARSSVIYMHWYQQKPGSSPKPWIYATFNLASGVPARFSGSGSGTSYSLTISRVEAEDAATYYCQQWSSNPPTFGSGTKLEIKR | binds
4E4 (antibody, V domains shown, Entries as printed include a leader and part of the constant region) VH: QVQLQQPGAELVKPGASVKLSCKASGYTFTSYWMHWVKQRPGQGLEWIGMIHPNSGSTNYNEKFKNKATLTVDKSSSTAYMQLSSLTSEDSAVYYCAPRMFDDYDDYWGQGTTLTVSS VL: QIVLTQSPAIMSASLGERVTMTCTASSSVSSSYLHWYQQKPGSSPKLWIYSTSNLASGVPVRFSGSGSGTSYSLTISRMEAEDAATYYCHHYHRSPYTFGGGTKLEIKR | binds

Where do the numbers come from? From patent US20220153834A1.
